- Experiment Notes: Cytotoxicity using Vero cells
- Test Parameters: African green monkey, Vero cells
Reported Metric: IC50

COc1ncccc1Nc1cc2nc3ccccc3n(-c3cccc(Cl)c3)c-2cc1=NC1CCC1; > 64 µg/mL
COc1ncccc1Nc1cc2nc3ccccc3n(-c3ccc(F)c(F)c3)c-2cc1=NC1CCC1; > 64 µg/mL

Next molecule, please.
Recorded IC50 (molecule COc1ncccc1Nc1cc2nc3ccccc3n(-c3ccc(F)c(F)c3)c-2cc1=NC(C)C ): > 64 µg/mL
